- tgt: the molecule itself
- assay_overview: SEC; analytical size-exclusion chromatography, Superdex 200 10/30, Tris-HCl 20 mM pH 7.8, NaCl 100 mM, glycerol 5%, CHAPS 0.01%, DTT 4 mM; column calibrated with marker proteins; number of chains from apparent over theoretical monomer molecular weight

| protein | binding result |
| --- | --- |
| KCTD1^D69E (full-length KCTD1 with the SEN-causing mutation D69E) (natural protein, human, UniProt Q719H9 1-257, looked up, KCTD1, full-length protein, residues 1-257, disease-causing missense variant D69E; the mutation occurs in families with SEN syndrome; also called KCTD^D69E; source: E. coli BL21(DE3), purified (His-trap, TEV digestion, Superdex 200); not shown: polyHis, N-terminal, cleaved) MSRPLITRSPASPLNNQGIPTPAQLTKSNAPVHIDVGGHMYTSSLATLTKYPESRIGRLFDGTEPIVLESLKQHYFIDRDGQMFRYILNFLRTSKLLIPDDFKDYTLLYEEAKYFQLQPMLLEMERWKQDRETGRFSRPCECLVVRVAPDLGERITLSGDKSLIEEVFPEIGDVMCNSVNAGWNHDSTHVIRFPLNGYCHLNSVQVLERLQQRGFEIVGSCGGGVDSSQFSEYVLRRELRRTPRVPSVIRIKQEPLD | binds |
| KCTD1^P20S (full-length KCTD1 with the SEN-causing mutation P20S) (natural protein, human, UniProt Q719H9 1-257, looked up, KCTD1, full-length protein, residues 1-257, disease-causing missense variant P20S; the mutation occurs in families with SEN syndrome; also called KCTD^P20S; source: E. coli BL21(DE3), purified (His-trap, TEV digestion, Superdex 200); not shown: polyHis, N-terminal, cleaved) MSRPLITRSPASPLNNQGISTPAQLTKSNAPVHIDVGGHMYTSSLATLTKYPESRIGRLFDGTEPIVLDSLKQHYFIDRDGQMFRYILNFLRTSKLLIPDDFKDYTLLYEEAKYFQLQPMLLEMERWKQDRETGRFSRPCECLVVRVAPDLGERITLSGDKSLIEEVFPEIGDVMCNSVNAGWNHDSTHVIRFPLNGYCHLNSVQVLERLQQRGFEIVGSCGGGVDSSQFSEYVLRRELRRTPRVPSVIRIKQEPLD | binds |
| KCTD1^H33P (full-length KCTD1 with the SEN-causing mutation H33P) (natural protein, human, UniProt Q719H9 1-257, looked up, KCTD1, full-length protein, residues 1-257, disease-causing missense variant H33P; the mutation occurs in families with SEN syndrome; also called KCTD^H33P; source: E. coli BL21(DE3), purified (His-trap, TEV digestion, Superdex 200); not shown: polyHis, N-terminal, cleaved) MSRPLITRSPASPLNNQGIPTPAQLTKSNAPVPIDVGGHMYTSSLATLTKYPESRIGRLFDGTEPIVLDSLKQHYFIDRDGQMFRYILNFLRTSKLLIPDDFKDYTLLYEEAKYFQLQPMLLEMERWKQDRETGRFSRPCECLVVRVAPDLGERITLSGDKSLIEEVFPEIGDVMCNSVNAGWNHDSTHVIRFPLNGYCHLNSVQVLERLQQRGFEIVGSCGGGVDSSQFSEYVLRRELRRTPRVPSVIRIKQEPLD | binds |
